- experimental details: compound effects on lung adenocarcinoma cell viability – A549, calcein-AM fluorescence, 48 h, basal, profiling panel (AID 1162); note: test concentration not given here
- stated conditions: higher = more signal
Decide using z-score: a value greater than or equal to -0.8 is met, a smaller one is not met.

[[record]]
compound = "O=C1NC(=O)C2C1C=CC(C(O)c1ccc(I)cc1)N2Nc1ccc(Cl)cc1Cl (stereo not given)"
class_name = "met"

[[record]]
compound = "COC(=O)[C@@]1(Cc2ccc(OC)cc2)[C@H]2c3cc(C(=O)N4CCCC4)n(CCCNc4ncc(C(F)(F)F)cc4Cl)c3C[C@H]2CN1C(=O)c1ccccc1"
class_name = "not met"

[[record]]
compound = "NC(=O)[C@@H]1[C@H]2C(=O)O[C@H](c3ccccc3)[C@H](c3ccccc3)N2[C@H](c2ccc(OCCO)cc2)[C@@]12C(=O)Nc1ccc(C#CC3=CCCCC3)cc12"
class_name = "not met"

[[record]]
compound = "[N-]=[N+]=Nc1ccccc1[C@H]1OC(c2ccc(OCCCO)cc2)=N[C@@]1(Cc1ccccc1)C(=O)N1CCOCC1"
class_name = "not met"

[[record]]
compound = "CCCCN1CC=CC23O[C@@H]4C=CCCOC(=O)C4[C@H]2C(=O)N(CCCCCO)[C@@H]3C1=O (stereo not given in full)"
class_name = "met"


Answer whether z-score of OB1C=CCC(CCc2ccccc2)O1 (stereo not given) is greater than or equal to -0.8. met

hey, is z-score for this one >= -0.8? COCCOC(=O)N1C(=O)[C@@]2(c3cc(C#CC4(O)CCCCCC4)ccc31)[C@H](C(=O)Nc1nc3ccccc3s1)[C@H]1C(=O)O[C@H](c3ccccc3)[C@H](c3ccccc3)N1[C@@H]2c1ccc(OCCO)cc1 met

Check if z-score >= -0.8 (inclusive). Item: C#CCNCc1ccccc1 met

Threshold query (z-score >= -0.8) on COC(=O)c1c(CC[C@@H](CO)NC(=O)NCCc2c[nH]c3ccccc23)oc(C(=O)Cc2ccccc2)c1C(=O)OC met

Form field: z-score at least -0.8? Entry: COc1ccc(C(O)C2C=CC3C(=O)N(C)C(=O)C3N2NC(=O)OC(C)(C)C)c2ccccc12 (stereo not given) not met

Is z-score at least -0.8? Consider O=C1C[C@@](C(=O)NCc2ccccc2)(c2ccc([N+](=O)[O-])cc2)[C@@H](c2ccc(CO)cc2)N1CC12CC3CC(CC(C3)C1)C2 met

Confirm if z-score reported for the compound C=CCN(Cc1ccccc1)C(=O)C(c1cccs1)N(C(=O)/C=C\C(=O)O)c1ccc(CCOCCO)cc1 (stereo not given) is -0.8 or above. met

Given the entry COc1cc2c(cc1O)C(c1cccs1)N(Cc1cccc(OC(F)(F)F)c1)CC2 (stereo not given) , answer whether its z-score meets or surpasses -0.8. not met

Quick check: does COCCOC(=O)N1C(=O)[C@@]2(c3cc(C#CC4=CCCCC4)ccc31)[C@H](c1ccc(OCCO)cc1)N1[C@H](c3ccccc3)[C@H](c3ccccc3)OC(=O)[C@H]1[C@@H]2C(=O)N1CCc2cc(OC)c(OC)cc2C1 have z-score greater than or equal to -0.8? met

State whether the measured z-score reaches -0.8, counting equality as reaching it, for COc1cc(CO)cc(I)c1O[C@H]1C=C(C(=O)NCCO)C[C@@H](NC[C@@H]2CCCO2)[C@@H]1O met

----------
- system name: Pro-neuregulin-1, membrane-bound isoform (Homo sapiens) (UniProt Q02297)
- Sequence (Q02297 whole entry, looked up, canonical isoform): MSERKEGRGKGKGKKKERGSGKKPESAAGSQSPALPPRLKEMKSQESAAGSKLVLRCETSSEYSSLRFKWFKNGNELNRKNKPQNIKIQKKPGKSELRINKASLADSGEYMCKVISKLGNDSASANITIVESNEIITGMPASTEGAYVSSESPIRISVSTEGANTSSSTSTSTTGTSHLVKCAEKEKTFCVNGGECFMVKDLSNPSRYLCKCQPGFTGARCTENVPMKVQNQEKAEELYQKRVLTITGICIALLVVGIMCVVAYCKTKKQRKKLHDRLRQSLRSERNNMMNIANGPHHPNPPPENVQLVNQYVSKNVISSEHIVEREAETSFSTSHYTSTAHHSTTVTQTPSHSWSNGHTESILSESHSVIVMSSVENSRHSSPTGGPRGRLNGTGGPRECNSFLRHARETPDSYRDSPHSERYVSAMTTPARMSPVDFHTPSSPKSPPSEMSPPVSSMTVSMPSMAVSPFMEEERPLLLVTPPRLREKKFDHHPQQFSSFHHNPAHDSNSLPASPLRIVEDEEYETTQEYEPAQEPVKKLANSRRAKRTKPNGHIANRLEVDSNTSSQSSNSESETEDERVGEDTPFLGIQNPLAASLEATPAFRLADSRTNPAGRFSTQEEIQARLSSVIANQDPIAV
- experimental details: small molecules binding neuregulin-1 protein – biochemical, small-molecule microarray, fluorescence 635/667, psychiatric disease protein project, primary screen (AID 1075);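 note: score combines 667 nm spot fluorescence with signal to noise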
- stated conditions: NRG1 binding, 635 nm fluorescence, higher = more signal
// Criterion not met strictly below 1 in composite z-score; Criterion met otherwise

[[record]]
compound = "C=C(C(=O)CC[C@H](OC(C)=O)c1ccccc1OCCO)C(C)C"
class_name = "Criterion not met"


Determine whether this compound has composite z-score no lower than 1: C=C(CCCC)/C(=C/C[C@@H](OC(C)=O)c1cccc(OCCO)c1)c1cnc2ccccc2c1 Criterion not met

# bool: composite z-score of COc1ccc(C(O)C2C=CC3C(=O)N(C)C(=O)C3N2NC(=O)OC(C)(C)C)c2ccccc12 (stereo unspecified) >= 1 Criterion met

----------
- experimental details: probe aXIP binding to arrayed compounds – biochemical, NeuroSMM set, 635/667 nm fluorescence, primary screen (AID 1119);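 note: probe is the protein aXip251-270 applied at 1 µg/mL to compound-printed slides; binding of probe to printed compounds measured as 667 nm fluorescence plus signal to noise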
- stated conditions: small-molecule microarray, higher = more signal, called active from +8 up or from −8 down
Answer NO if composite Z-score is under 0.4, and YES if it is 0.4 or more.

Before answering, review these 4 worked examples.
[[record]]
compound = "COCCOC(=O)N1C(=O)[C@@]2(c3ccccc31)[C@H](C(=O)N1CCc3cc(OC)c(OC)cc3C1)[C@H]1C(=O)O[C@H](c3ccccc3)[C@H](c3ccccc3)N1[C@@H]2c1ccc(O)cc1"
class_name = "NO"

[[record]]
compound = "O=C1OCCC=C[C@H]2OC34C=CCN(CCN5CCOCC5)C(=O)[C@H]3N(CCCCCO)C(=O)[C@@H]4C12 (some centres not stated)"
class_name = "NO"

[[record]]
compound = "COC(=O)[C@@]1(Cc2ccc(OC)cc2)[C@H]2c3cc(C(=O)N4CCCC4)n(CCCNc4ncc(C(F)(F)F)cc4Cl)c3C[C@H]2CN1C(=O)c1ccccc1"
class_name = "NO"

[[record]]
compound = "CCCCN1CC=CC23O[C@@H]4/C=C\\CCCOC(=O)C4[C@H]2C(=O)N(CCCCCO)[C@@H]3C1=O (some centres not stated)"
class_name = "YES"


Is reported composite Z-score greater than or equal to 0.4 here: O=C1NC(=O)C2C1C=CC(C(O)c1ccc(I)cc1)N2Nc1ccccn1 (configuration not stated) NO

Please tell me: is the compound COC(=O)c1c(CC[C@@H](CO)NC(=O)N[C@H](Cc2ccccc2)Cn2cc(-c3ccccn3)nn2)oc(C(C)=O)c1C(=O)OC at or over 0.4 in terms of composite Z-score? YES

In plain terms: is recorded composite Z-score at least 0.4 for CC(C)Cc1ccc(CN2CC[C@@H](N)C2)cc1 ? NO

----------
For each of the compounds below, state its composite z-score.
- system name: Alpha-bungarotoxin (Bungarus multicinctus) (UniProt P60615)
- Sequence (P60615 whole entry, looked up): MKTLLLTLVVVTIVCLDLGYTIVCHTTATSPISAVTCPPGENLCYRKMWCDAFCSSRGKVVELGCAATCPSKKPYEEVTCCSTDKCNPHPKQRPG
- experimental details: compounds binding labelled alpha-BTX control protein – biochemical, small-molecule microarray, Alexa647 label, 635/667 nm fluorescence, artefact control for SMM control protein annotation, profiling panel (AID 1117)
- stated conditions: alpha-BTX-A647 binding fluorescence, higher = more signal
Answers are plain numbers.

[[record]]
compound = "COc1ccccc1CN1C(=O)c2ccccc2[C@@]2(Cc3ccccc3N(CCCN(C)C)C2=O)[C@@H]1c1ccc(CO)cc1"
measured_quantity = "composite z-score"
val = -0.94

[[record]]
compound = "C=CC[C@@]1(C(=O)N2CCCCC2)N=C(c2ccc(OCCCO)cc2)O[C@@H]1c1ccccc1N=[N+]=[N-]"
measured_quantity = "composite z-score"
val = 2.11

[[record]]
compound = "O=C1NC(=O)C2C1C=CC(C(O)c1ccc(I)cc1)N2Nc1ccc(Cl)cc1Cl (stereo not drawn)"
measured_quantity = "composite z-score"
val = 1.1

[[record]]
compound = "COC(=O)[C@@]1(Cc2ccccc2)[C@H]2c3cc(C(=O)N(C)C)n(CCc4c[nH]c5ccc(O)cc45)c3C[C@H]2CN1C(=O)c1ccccc1"
measured_quantity = "composite z-score"
val = 0.194

[[record]]
compound = "NCCCCCNC(=O)[C@H]1C[C@H]2C(=O)N3CCC[C@H]3C(=O)N2[C@H]1c1ccc(O)cc1"
measured_quantity = "composite z-score"
val = 1.1


List the reported composite z-score of each compound below.
1. COC(=O)[C@H](Cc1ccccc1)N[C@H](/C=C/C1CC1)[C@@H](O)Cc1ccccc1
2. CC(=CC1CCCCC1)[C@@H](NC(=O)c1cccnc1)c1ccc(-c2ccccc2)cc1
3. C=C(CCCC)C(=O)CC[C@@H](OC(C)=O)c1ccc(CO)o1

-0.696
-0.124
-0.217

----------
- system name: Focal adhesion kinase 1 (Homo sapiens) (UniProt Q05397)
- Sequence (Q05397 whole entry, looked up): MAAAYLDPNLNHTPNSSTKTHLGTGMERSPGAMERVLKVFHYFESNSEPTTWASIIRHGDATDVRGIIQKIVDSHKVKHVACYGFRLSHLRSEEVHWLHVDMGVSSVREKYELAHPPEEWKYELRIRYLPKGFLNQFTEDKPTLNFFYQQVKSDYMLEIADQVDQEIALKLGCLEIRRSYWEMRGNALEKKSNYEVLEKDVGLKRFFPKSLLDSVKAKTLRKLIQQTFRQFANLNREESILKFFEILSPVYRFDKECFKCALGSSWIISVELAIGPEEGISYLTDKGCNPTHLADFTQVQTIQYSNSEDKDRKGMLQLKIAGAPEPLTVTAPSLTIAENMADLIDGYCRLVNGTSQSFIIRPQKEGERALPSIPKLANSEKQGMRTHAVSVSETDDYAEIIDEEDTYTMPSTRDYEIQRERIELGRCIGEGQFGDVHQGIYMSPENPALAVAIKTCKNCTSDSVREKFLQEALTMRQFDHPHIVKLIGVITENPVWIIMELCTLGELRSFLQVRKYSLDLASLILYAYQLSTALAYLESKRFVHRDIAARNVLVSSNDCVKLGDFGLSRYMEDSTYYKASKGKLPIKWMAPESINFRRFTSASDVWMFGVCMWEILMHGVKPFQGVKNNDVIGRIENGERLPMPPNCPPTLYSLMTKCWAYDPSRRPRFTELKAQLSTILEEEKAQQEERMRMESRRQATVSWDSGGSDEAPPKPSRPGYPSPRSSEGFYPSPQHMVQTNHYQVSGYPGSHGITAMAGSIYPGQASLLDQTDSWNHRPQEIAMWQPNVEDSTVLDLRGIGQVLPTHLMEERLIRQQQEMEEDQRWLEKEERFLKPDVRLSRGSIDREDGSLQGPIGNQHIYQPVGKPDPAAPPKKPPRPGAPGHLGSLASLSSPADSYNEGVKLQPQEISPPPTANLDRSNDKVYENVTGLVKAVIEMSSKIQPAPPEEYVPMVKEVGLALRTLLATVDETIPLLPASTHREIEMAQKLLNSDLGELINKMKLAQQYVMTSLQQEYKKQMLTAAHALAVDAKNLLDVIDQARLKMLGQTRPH
- experimental details: PTK2 protein binding on printed compound slides – biochemical, small-molecule microarray, 635/667 nm fluorescence, BSA, DTT, primary screen (AID 1130);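 note: composite of spot emission at 667 nm and signal to noise over triplicate slides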
- stated conditions: 635 nm fluorescence, higher = more signal
measured quantity: composite z-score
Answers are plain numbers.

[[record]]
compound = "COc1cc(OC)c(C(O)C2C=CC3C(=O)NC(=O)C3N2Nc2ccccn2)cc1Br (stereo not drawn)"
val = 0.124

[[record]]
compound = "C[N+](C)(C)CCCCCCNC(=O)[C@H]1C[C@H]2C(=O)N[C@@H](Cc3ccccc3)C(=O)N2[C@H]1c1cccc(OCCO)c1"
val = 0.118


For each listed entry, give its composite z-score.
1. COc1ccc(C(O)C2C=CC3C(=O)N(C)C(=O)C3N2N(c2ccccc2)c2ccccc2)c2ccccc12 (stereo not drawn)
2. CCOC(=O)C1=C[C@@H](C(C)C)N(S(=O)(=O)c2ccc(C)cc2)[C@H]1c1ccccc1F
3. COCC(=C=CC[C@H](O)c1ccccc1OCCO)CCO
4. Cc1c(NC(=O)/C(C#N)=C/c2cccc([N+](=O)[O-])c2)c(=O)n(-c2ccccc2)n1C
5. C=CCN1C(=O)[C@]2(Cc3ccccc3)N=C(c3ccc(OCCCO)cc3)O[C@@H]2c2ccccc21
6. NC(=O)[C@@H]1[C@H]2C(=O)O[C@H](c3ccccc3)[C@H](c3ccccc3)N2[C@H](c2ccc(O)cc2)[C@@]12C(=O)Nc1ccc(C#CC3=CCCCC3)cc12

1: -0.278; 2: -0.0031; 3: 0.432; 4: -0.148; 5: 0.145; 6: 0.284
